The measured values listed here are drawn from patent US10550093B2.

System: CFPAC-1 human pancreatic cancer cell line
Test: Cytotoxicity of third-generation taxoids, CFPAC-1
Format: cell-based
Conditions: CFPAC-1 cells
METRIC: IC50 (nM)
Write the value in nM as a bare number.

Record excerpt, results attached:
Qu. What measured IC50 goes with C=C(C)CC(NC(=O)OC(C)(C)C)C(O)C(=O)OC1CC2(O)C(OC(=O)c3cccc(OC(F)(F)F)c3)C3C4(OC(C)=O)COC4CC(O)C3(C)C(=O)C(OC(=O)N(C)C)C(=C1C)C2(C)C (stereo not drawn) ?
Ans. 0.56

Qu. What value of IC50 has been recorded for this entry: C=C(C)CC(NC(=O)OC(C)(C)C)C(O)C(=O)OC1CC2(O)C(OC(=O)c3cccc(OC(F)F)c3)C3C4(OC(C)=O)COC4CC(O)C3(C)C(=O)C(OC(C)=O)C(=C1C)C2(C)C (stereo not drawn)
Ans. 0.23

// next item, IC50 requested
Qu. Data request, read-out IC50, for C=C(C)CC(NC(=O)OC(C)(C)C)C(O)C(=O)OC1CC2(O)C(OC(=O)c3cccc(OC(F)F)c3)C3C4(OC(C)=O)COC4CC(O)C3(C)C(=O)C(OC(=O)OC)C(=C1C)C2(C)C (stereo not drawn)
Ans. 0.15

====

System: MCF7 human breast cancer cell line
Assay: Cytotoxicity of third-generation taxoids, MCF7
Assay type: cell-based
Conditions: MCF7 cells
METRIC: pIC50
# log scale: pIC50 equals minus log10 of the concentration in mol/L

Consider the reported pIC50 for these molecules:
Qu. Which pIC50 value belongs to C=C(C)CC(NC(=O)OC(C)(C)C)C(O)C(=O)OC1CC2(O)C(OC(=O)c3cccc(OC(F)(F)F)c3)C3C4(OC(C)=O)COC4CC(O)C3(C)C(=O)C(OC(=O)CC)C(=C1C)C2(C)C (centres unmarked) ?
Ans. 8.76

Qu. Data request, read-out pIC50, for C=C(C)CC(NC(=O)OC(C)(C)C)C(O)C(=O)OC1CC2(O)C(OC(=O)c3cccc(OC(F)(F)F)c3)C3C4(OC(C)=O)COC4CC(O)C3(C)C(=O)C(OC)C(=C1C)C2(C)C (centres unmarked)
Ans. 8.61

Qu. What measured pIC50 goes with C=C(C)CC(NC(=O)OC(C)(C)C)C(O)C(=O)OC1CC2(O)C(OC(=O)c3cccc(OC(F)F)c3)C3C4(OC(C)=O)COC4CC(O)C3(C)C(=O)C(OC(=O)OC)C(=C1C)C2(C)C (centres unmarked) ?
Ans. 9.92

Qu. I'd like to know its pIC50. The molecule in question is "C=C(C)C[C@H](NC(=O)OC(C)(C)C)[C@@H](O)C(=O)O[C@H]1C[C@@]2(O)[C@@H](OC(=O)c3cccc(OC(F)F)c3)[C@@H]3[C@]4(OC(C)=O)CO[C@@H]4C[C@H](O)[C@@]3(C)C(=O)[C@H](OC(=O)CC)C(=C1C)C2(C)C"
Ans. 9.27

Switching to the query record.
Qu. Endpoint output: pIC50 of C=C(C)CC(NC(=O)OC(C)(C)C)C(O)C(=O)OC1CC2(O)C(OC(=O)c3cccc(OC(F)F)c3)C3C4(OC(C)=O)COC4CC(O)C3(C)C(=O)C(OC(=O)C3CC3)C(=C1C)C2(C)C (centres unmarked) . Value?
Ans. 9.54

====

Test system: PANC-1 human pancreatic cancer cell line
Experiment: Cytotoxicity of third-generation taxoids, PANC-1
Assay type: cell-based
Details: PANC-1 cells
METRIC: IC50

Qu. Reported IC50 for PANC-1 human pancreatic cancer cell line, given C=C(C)CC(NC(=O)OC(C)(C)C)C(O)C(=O)OC1CC2(O)C(OC(=O)c3cccc(OC(F)F)c3)C3C4(OC(C)=O)COC4CC(O)C3(C)C(=O)C(OC(C)=O)C(=C1C)C2(C)C (centres unmarked) ?
Ans. 0.49 nM

Qu. Param readout = IC50; param system = PANC-1 human pancreatic cancer cell line; param query = C=C(C)CC(NC(=O)OC(C)(C)C)C(O)C(=O)OC1CC2(O)C(OC(=O)c3cccc(OC(F)(F)F)c3)C3C4(OC(C)=O)COC4CC(O)C3(C)C(=O)C(OC(=O)OC)C(=C1C)C2(C)C (centres unmarked) ; response: value
Ans. 1.17 nM

Qu. Test system PANC-1 human pancreatic cancer cell line; read-out IC50; what value for C=C(C)CC(NC(=O)OC(C)(C)C)C(O)C(=O)OC1CC2(O)C(OC(=O)c3cccc(OC(F)F)c3)C3C4(OC(C)=O)COC4CC(O)C3(C)C(=O)C(OC(=O)C3CC3)C(=C1C)C2(C)C (centres unmarked) ?
Ans. 0.75 nM

Qu. Form: Entry = C=C(C)CC(NC(=O)OC(C)(C)C)C(O)C(=O)OC1CC2(O)C(OC(=O)c3cccc(OC(F)F)c3)C3C4(OC(C)=O)COC4CC(O)C3(C)C(=O)C(OC(=O)OC)C(=C1C)C2(C)C (centres unmarked) | System = PANC-1 human pancreatic cancer cell line | IC50 = ____
Ans. 1.06 nM

***
Qu. Could you share what IC50 was measured for C=C(C)CC(NC(=O)OC(C)(C)C)C(O)C(=O)OC1CC2(O)C(OC(=O)c3cccc(OC(F)(F)F)c3)C3C4(OC(C)=O)COC4CC(O)C3(C)C(=O)C(OC(=O)CC)C(=C1C)C2(C)C (centres unmarked) , tested on PANC-1 human pancreatic cancer cell line?
Ans. 1.12 nM
